Origin of measurements: patent US20160046684A1

kcat for assorted molecules
- Test system: PTP1B
- Protocol description: Phosphatase activity of PTP1B constructs against pNPP (enzyme assay)
- Format: biochemical, human
- Condition label: pNPP substrate, pH 7.5, 0.015 μM PTP1B (FIG. 27, 32A, 32B)
Property measured: kcat (s⁻¹)

{"Molecule": "PTP1BK292A: PTP1B1-301 mutant with point mutation in the α7 helix (protein, UniProt P18031 1-301, looked up, variant K292A) MEMEKEFEQIDKSGSWAAIYQDIRHEASDFPCRVAKLPKNKNRNRYRDVSPFDHSRIKLHQEDNDYINASLIKMEEAQRSYILTQGPLPNTCGHFWEMVWEQKSRGVVMLNRVMEKGSLKCAQYWPQKEEKEMIFEDTNLKLTLISEDIKSYYTVRQLELENLTTQETREILHFHYTTWPDFGVPESPASFLNFLFKVRESGSLSPEHGPVVVHCSAGIGRSGTFCLADTCLLLMDKRKDPSSVDIKKVLLEMRKFRMGLIQTADQLRFSYLAVIEGAKFIMGDSSVQDQWAELSHEDLEP", "Property measured": "kcat", "Measured result": 6.1}
{"Molecule": "PTP1BG283P: PTP1B1-301 mutant with point mutation in the α7 helix (protein, UniProt P18031 1-301, looked up, variant G283P) MEMEKEFEQIDKSGSWAAIYQDIRHEASDFPCRVAKLPKNKNRNRYRDVSPFDHSRIKLHQEDNDYINASLIKMEEAQRSYILTQGPLPNTCGHFWEMVWEQKSRGVVMLNRVMEKGSLKCAQYWPQKEEKEMIFEDTNLKLTLISEDIKSYYTVRQLELENLTTQETREILHFHYTTWPDFGVPESPASFLNFLFKVRESGSLSPEHGPVVVHCSAGIGRSGTFCLADTCLLLMDKRKDPSSVDIKKVLLEMRKFRMGLIQTADQLRFSYLAVIEGAKFIMPDSSVQDQWKELSHEDLEP", "Property measured": "kcat", "Measured result": 4.9}
{"Molecule": "PTP1BE297A: PTP1B1-301 mutant with point mutation in the α7 helix (protein, UniProt P18031 1-301, looked up, variant E297A) MEMEKEFEQIDKSGSWAAIYQDIRHEASDFPCRVAKLPKNKNRNRYRDVSPFDHSRIKLHQEDNDYINASLIKMEEAQRSYILTQGPLPNTCGHFWEMVWEQKSRGVVMLNRVMEKGSLKCAQYWPQKEEKEMIFEDTNLKLTLISEDIKSYYTVRQLELENLTTQETREILHFHYTTWPDFGVPESPASFLNFLFKVRESGSLSPEHGPVVVHCSAGIGRSGTFCLADTCLLLMDKRKDPSSVDIKKVLLEMRKFRMGLIQTADQLRFSYLAVIEGAKFIMGDSSVQDQWKELSHADLEP", "Property measured": "kcat", "Measured result": 4.6}
{"Molecule": "PTP1BL294A: PTP1B1-301 mutant with point mutation in the α7 helix (protein, UniProt P18031 1-301, looked up, variant L294A) MEMEKEFEQIDKSGSWAAIYQDIRHEASDFPCRVAKLPKNKNRNRYRDVSPFDHSRIKLHQEDNDYINASLIKMEEAQRSYILTQGPLPNTCGHFWEMVWEQKSRGVVMLNRVMEKGSLKCAQYWPQKEEKEMIFEDTNLKLTLISEDIKSYYTVRQLELENLTTQETREILHFHYTTWPDFGVPESPASFLNFLFKVRESGSLSPEHGPVVVHCSAGIGRSGTFCLADTCLLLMDKRKDPSSVDIKKVLLEMRKFRMGLIQTADQLRFSYLAVIEGAKFIMGDSSVQDQWKEASHEDLEP", "Property measured": "kcat", "Measured result": 5.1}
